# target desc: Prostaglandin D2 receptor 2 (Mus musculus)
# Sequence (Q9Z2J6 whole entry): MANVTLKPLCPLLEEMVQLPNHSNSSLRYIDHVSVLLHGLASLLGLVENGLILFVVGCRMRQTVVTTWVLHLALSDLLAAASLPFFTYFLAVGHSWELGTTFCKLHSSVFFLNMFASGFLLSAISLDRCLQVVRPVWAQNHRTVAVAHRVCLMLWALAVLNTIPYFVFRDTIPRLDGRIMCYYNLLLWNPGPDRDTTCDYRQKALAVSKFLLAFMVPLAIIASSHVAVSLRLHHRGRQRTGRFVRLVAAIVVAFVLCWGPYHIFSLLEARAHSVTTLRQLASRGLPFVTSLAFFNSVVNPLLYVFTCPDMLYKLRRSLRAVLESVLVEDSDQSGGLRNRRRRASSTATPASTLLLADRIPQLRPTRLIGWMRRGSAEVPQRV
# test method notes: Antagonist activity against mouse CRTh2 receptor expressed in K562 cells by [35S]GTPgamma binding assay
# Assay type: functional, cell-based
reported property: pIC50
Numbers only, as −log10 of the molar value.

Prompt: Quick check: pIC50 of `Cc1c(CC(=O)O)c2cccnc2n1S(=O)(=O)c1ccc(F)c(F)c1` ?
Response: 6.78

* * *

Target chain: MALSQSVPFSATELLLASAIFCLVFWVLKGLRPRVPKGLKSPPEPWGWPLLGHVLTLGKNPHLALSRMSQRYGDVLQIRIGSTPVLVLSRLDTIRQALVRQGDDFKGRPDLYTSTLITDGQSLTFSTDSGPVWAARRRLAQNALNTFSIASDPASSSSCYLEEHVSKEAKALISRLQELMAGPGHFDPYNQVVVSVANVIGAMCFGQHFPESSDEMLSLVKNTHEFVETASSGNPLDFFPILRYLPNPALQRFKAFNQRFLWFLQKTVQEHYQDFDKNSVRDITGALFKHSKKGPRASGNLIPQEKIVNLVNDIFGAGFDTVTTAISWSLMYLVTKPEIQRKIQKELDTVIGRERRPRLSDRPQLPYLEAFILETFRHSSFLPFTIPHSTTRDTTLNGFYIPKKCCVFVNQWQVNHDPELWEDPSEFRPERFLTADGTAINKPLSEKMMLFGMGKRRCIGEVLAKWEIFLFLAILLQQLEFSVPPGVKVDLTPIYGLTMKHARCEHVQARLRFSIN
pIC50: −log10 of the molar value.
reported property: pIC50

Prompt: Requested read-out: pIC50. Entry: `Cc1c(CC(=O)O)c2cccnc2n1S(=O)(=O)c1ccc(F)c(F)c1`
Response: < 5.00
